# SYSTEM NAME: UniProt P35367
# Sequence (P35367 whole entry): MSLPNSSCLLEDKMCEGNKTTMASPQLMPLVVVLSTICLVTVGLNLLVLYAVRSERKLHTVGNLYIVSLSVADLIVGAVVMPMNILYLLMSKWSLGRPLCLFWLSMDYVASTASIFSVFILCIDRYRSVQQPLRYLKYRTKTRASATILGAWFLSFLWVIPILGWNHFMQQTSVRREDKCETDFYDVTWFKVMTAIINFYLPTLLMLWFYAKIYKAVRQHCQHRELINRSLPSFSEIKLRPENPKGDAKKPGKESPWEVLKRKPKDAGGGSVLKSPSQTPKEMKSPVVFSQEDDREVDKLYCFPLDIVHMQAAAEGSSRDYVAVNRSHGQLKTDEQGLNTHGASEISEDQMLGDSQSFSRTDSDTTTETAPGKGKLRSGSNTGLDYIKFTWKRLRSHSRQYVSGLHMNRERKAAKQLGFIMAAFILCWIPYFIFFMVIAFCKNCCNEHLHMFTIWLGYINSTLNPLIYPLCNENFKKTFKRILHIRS
# TEST PROTOCOL: Human H1R radioligand displacement assay
# Type: binding
# CONDITION DETAILS: read-out: hH1R Inhibition at 1 µM [%] (n)
MEASUREMENT TYPE: inhibition at 1 µM (%)
Please state the figure in %; there is no need to write the unit.

// query Which measured inhibition at 1 µM belongs to CC1CCN(CCCOc2ccc3nc(C(=O)N4CCC(C)CC4)sc3c2)CC1 [Compound 4l] , tested on UniProt P35367?
// result 26.8

// query Which measured inhibition at 1 µM belongs to CCN1CCN(CCCOc2ccc3nc(C(=O)N4CCN(CC)CC4)sc3c2)CC1 [Compound 4f] , tested on UniProt P35367?
// result 3

// query Which measured inhibition at 1 µM belongs to O=C(c1nc2ccc(OCCCN3CCCCCC3)cc2s1)N1CCCCCC1 [Compound 4b] , tested on UniProt P35367?
// result 41.9

// query Which measured inhibition at 1 µM belongs to CN1CCN(CCCOc2ccc3nc(C(=O)N4CCN(C)CC4)sc3c2)CC1 [Compound 4g] , tested on UniProt P35367?
// result 4.8

// query Which measured inhibition at 1 µM belongs to O=C(NCCN1CCCC1)c1nc2ccc(OCCCNCCN3CCCC3)cc2s1 [Compound 4a] , tested on UniProt P35367?
// result 28.1

// query Which measured inhibition at 1 µM belongs to CC(=O)N1CCN(CCCOc2ccc3nc(C(=O)N4CCN(C(C)=O)C(C)C4)sc3c2)CC1C (stereo not drawn) [Compound 4m] , tested on UniProt P35367?
// result 27

// query Which measured inhibition at 1 µM belongs to O=C(NCCc1ccccc1)c1nc2ccc(OCCCNCCc3ccccc3)cc2s1 [Compound 4d] , tested on UniProt P35367?
// result 10.9

// query Which measured inhibition at 1 µM belongs to O=C(NCc1ccccc1)c1nc2ccc(OCCCNCc3ccccc3)cc2s1 [Compound 4j] , tested on UniProt P35367?
// result 27

// query Which measured inhibition at 1 µM belongs to CC1CCCN(CCCOc2ccc3nc(C(=O)N4CCCC(C)C4)sc3c2)C1 (stereo not drawn) [Compound 4k] , tested on UniProt P35367?
// result 42.9

These entries and their values trace back to paper PMC9937012.
